Molecular target: T1, Pot1pC (Schizosaccharomyces pombe, UniProt O13988 178-389)
T1 sequence: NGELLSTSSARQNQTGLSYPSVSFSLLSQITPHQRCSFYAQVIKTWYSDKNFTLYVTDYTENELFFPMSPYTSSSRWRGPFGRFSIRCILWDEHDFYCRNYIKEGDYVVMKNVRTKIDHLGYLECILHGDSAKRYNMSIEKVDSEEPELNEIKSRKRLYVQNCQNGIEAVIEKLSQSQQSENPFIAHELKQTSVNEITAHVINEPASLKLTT
Assay: EMSA
pKd: −log10 of the molar value.
readout_label: pKd

>  <binder>
GCTTACGGT (ssDNA) [9mer_G2C]

>  <number>
5.52

$$$$
>  <binder>
GGTTACGG (ssDNA) [8mer-3']

>  <number>
5.72

$$$$
>  <binder>
GGTTACGGT (ssDNA) [9mer-3']

>  <number>
6.40

$$$$
>  <binder>
GGTTACCGT (ssDNA) [9mer_G7C]

>  <number>
5.52

$$$$
>  <binder>
GGATACGGT (ssDNA) [9mer_T3A]

>  <number>
6.22

$$$$
>  <binder>
GGTTACGCT (ssDNA) [9mer_G8C]

>  <number>
6.10

$$$$
>  <binder>
GGTTAGGGT (ssDNA) [9mer_C6G]

>  <number>
6.52

$$$$
>  <binder>
CGTTACGGT (ssDNA) [9mer_G1C]

>  <number>
6.00

$$$$
